Values were extracted from patent US20140357713A1.

Could you please report measured MIC for the items listed next?
Test system: Escherichia coli (ATCC 25922)
test_description: Minimum inhibitory concentration (MIC) assay, Example 33
Format: cell-based
measurement_conditions: Escherichia coli, ATCC25922, n = 1; read-out: MIC E. coli
Please reply with the bare figure in µg/mL and do not write the unit itself.

CCCCCCCCCCCCOC(=O)C(C)NCCO.Cl (stereo not shown) [Nex-61] yielded MIC of 780

CC(C)(O/N=C(\C(=O)N[C@@H]1C(=O)N2C(C(=O)[O-])=C(C[n+]3ccccc3)CS[C@H]12)c1csc(N)n1)C(=O)O [Ceftazidime, reference compound] yielded MIC of 0.5

NCC[C@H](O)C(=O)N[C@@H]1C[C@H](N)[C@@H](O[C@H]2O[C@H](CN)[C@@H](O)[C@H](O)[C@H]2O)[C@H](O)[C@H]1O[C@H]1O[C@H](CO)[C@@H](O)[C@H](N)[C@H]1O [Amikacin, reference compound] yielded MIC of 2

CCCCCCCCCCCCOC(=O)C(C)NC(C)C.Cl (stereo not shown) [Nex-60] yielded MIC of 3130

CCCCCCCCCCCCOC(=O)C(C)NC.Cl (stereo not shown) [Nex-59] yielded MIC of 50

CCCCCCCCCCCCOC(=O)C(C)NCCN(CC)CC.Cl (stereo not shown) [Nex-62] yielded MIC of 100

CCCCCCCCCCCC(C)(C)OC(=O)C(C)N(C)C.Cl (stereo not shown) [Nex-65] yielded MIC of 3130

====

System: Aspergillus niger
test_description: Extended time kill study, Example 34 (0 to 24 h)
Assay type: cell-based
measurement_conditions: 4 × MIC, 2 h
Description: Time kill studies. Strain suspensions were prepared as described above for the MIC test, and strain suspensions and compound solutions were mixed in the same volume. Samples were removed at specified times including 0 min, 30 sec, 1 min and 5 mins, were diluted in the test medium and streaked on agar. Colonies were counted after 24 to 48 hrs of incubation. […]
Where a name gives a salt, the structure may show the parent alone.
endpoint_name: Viable counts in Log10 CFU/mL (Log10 CFU/mL)
Please reply with the bare figure in Log10 CFU/mL and do not write the unit itself.

CCCCCCCCCCCCOC(=O)C(C)NCCO.Cl (centres unmarked) yielded Viable counts in Log10 CFU/mL of 5.41

CCCCCCCCCCCCOC(=O)C(C)N(C)C (centres unmarked) [Nex-05, hydrochloride] yielded Viable counts in Log10 CFU/mL of 4

CCCCCCCCCCCCOC(=O)C(C)NCCN(CC)CC.Cl (centres unmarked) yielded Viable counts in Log10 CFU/mL of 5.49

CCCCCCCCCCCCOC(=O)C(C)NC.Cl (centres unmarked) yielded Viable counts in Log10 CFU/mL of 4.48

CCCCCCCCCCCCOC(=O)C(C)NC(C)C.Cl (centres unmarked) yielded Viable counts in Log10 CFU/mL of 4.48

====

System: Candida albicans (ATCC 90029)
test_description: Minimum inhibitory concentration (MIC) assay, Example 33
Assay type: cell-based
measurement_conditions: Candida albicans, ATCC90029, n = 2; read-out: MIC Candida albicans
Could you please report measured MIC for the items listed next?
Please reply with the bare figure in µg/mL and do not write the unit itself.

CCCCCCCCCCCCOC(=O)C(C)NC.Cl (stereo not drawn) yielded MIC of 25

CCCCCCCCCCCCOC(=O)C(C)NCCN(CC)CC.Cl (stereo not drawn) yielded MIC of 6.25

OC(Cn1cncn1)(Cn1cncn1)c1ccc(F)cc1F [Fluconazole, reference compound] yielded MIC of 0.25

CCCCCCCCCCCCOC(=O)C(C)NC(C)C.Cl (stereo not drawn) yielded MIC of 12500

CCCCCCCCCCCCOC(=O)C(C)NCCO.Cl (stereo not drawn) yielded MIC of 12.5
